# assayTarget: DLG2_2, Q15700
# Sequence (Q15700 189-283): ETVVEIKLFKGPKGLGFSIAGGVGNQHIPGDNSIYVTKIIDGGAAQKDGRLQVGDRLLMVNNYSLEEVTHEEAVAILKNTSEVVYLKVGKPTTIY
# protocolSummary: holdup assay
# Set-up: key: below the threshold = too weak to quantify, mostly under pKd 3.1 to 4
# measurementContext: plain residues with an end cap or a label only (N-terminal biotin on a linker: ttds)

>  <binder>
GQDSREETQL [KCNT2, Q6UVM3]

>  <pKd>
4.47

$$$$
>  <binder>
STLTIFETAL [ABCC4, O15439]

>  <pKd>
4.15

$$$$
>  <binder>
SVWLRKETRV [CYSLTR2, Q9NS75]

>  <pKd>
5.24

$$$$
>  <binder>
SRPQRTQTQV [HPV67-E6, A4U7F2]

>  <pKd>
4.81

$$$$
>  <binder>
SSRTRRETQL [HPV16-E6, P03126]

>  <pKd>
4.93

$$$$
>  <binder>
ERKLSSESQV [LRP4, O75096]

>  <pKd>
4.38

$$$$
>  <binder>
VLRLQSETSV [VANGL1, Q8TAA9]

>  <pKd>
4.58

$$$$
>  <binder>
QSARYRDTEL [TJP2, Q9UDY2]

>  <pKd>
3.61

$$$$
